- Target under test: Muscarinic acetylcholine receptor M4 (Homo sapiens) (UniProt P08173)
- Sequence (P08173 whole entry, looked up): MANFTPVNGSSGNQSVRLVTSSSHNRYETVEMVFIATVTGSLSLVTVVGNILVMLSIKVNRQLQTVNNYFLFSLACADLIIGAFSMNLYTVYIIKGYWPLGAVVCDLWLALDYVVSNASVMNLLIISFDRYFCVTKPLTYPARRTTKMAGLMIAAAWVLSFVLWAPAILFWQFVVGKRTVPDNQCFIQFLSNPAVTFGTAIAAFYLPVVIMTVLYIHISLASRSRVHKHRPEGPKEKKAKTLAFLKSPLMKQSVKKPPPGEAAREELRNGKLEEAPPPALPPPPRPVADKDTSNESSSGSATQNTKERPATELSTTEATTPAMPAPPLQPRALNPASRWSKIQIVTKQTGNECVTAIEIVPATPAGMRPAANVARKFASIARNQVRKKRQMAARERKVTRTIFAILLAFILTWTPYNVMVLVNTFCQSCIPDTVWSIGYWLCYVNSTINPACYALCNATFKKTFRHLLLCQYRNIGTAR
- Measurement notes: M4-linked GIRK flux change, two-sided – cell-based, HEK293 M4/GIRK, thallium flux, BTC-AM, M4 allosteric agonist project, primary screen (AID 625);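 further: thallium influx through GIRK channels coupled to M4 in HEK293 cells with BTC-AM dye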
- Experimental setup: at 10 µM, actives lie on both sides
Sorting guide: entries reporting fluorescence slope beneath 0.006 go in the 1 pile, the rest go in the -1 pile.

Solved entries:
{"Compound": "CCOC(=O)CC1(CC(=O)OCC)NC(=O)c2c(C)sc(C(=O)OCC)c2N1", "Class": 1}
{"Compound": "O=P(O)(c1ccccc1)c1ccccc1O", "Class": 1}
{"Compound": "COc1ccc(OC)c(C2=NOC(C(=O)Nc3cccnc3)C2)c1 (configuration not stated)", "Class": 1}
{"Compound": "O=C(O)C1C2CCC(O2)C1C(=O)Nc1cccc(F)c1 (configuration not stated)", "Class": 1}
{"Compound": "CCOC(=O)c1cc2oc(C)cc2n1CC(=O)OC1CCCCC1", "Class": -1}
{"Compound": "CCC(C)OC(=O)n1ccc(C(=O)Nc2nccs2)n1 (configuration not stated)", "Class": 1}
{"Compound": "COCCCn1c(SCC(=O)N2CCc3ccccc32)nnc1-c1ccoc1C", "Class": 1}
{"Compound": "Cc1ccc(C)c(S(=O)(=O)NCc2ccc(C(=O)N3CCN(C)CC3)cc2)c1", "Class": 1}

Q: In plain terms, does Nc1ncnc2nc(SCCN3CCCCC3)[nH]c12 come in under 0.006 for fluorescence slope?
A: 1

Q: Item Cc1cc(-c2ccccc2)c2nncn2n1 : fluorescence slope beneath 0.006, strictly?
A: 1

Q: is_below(fluorescence slope, 0.006) for COc1ccccc1-c1nc(C(F)(F)F)c(OC)o1 ?
A: 1

---

- Target under test: Voltage-gated potassium channel subunit beta-2 (Rattus norvegicus) (UniProt P62483)
- Sequence (P62483 whole entry, looked up): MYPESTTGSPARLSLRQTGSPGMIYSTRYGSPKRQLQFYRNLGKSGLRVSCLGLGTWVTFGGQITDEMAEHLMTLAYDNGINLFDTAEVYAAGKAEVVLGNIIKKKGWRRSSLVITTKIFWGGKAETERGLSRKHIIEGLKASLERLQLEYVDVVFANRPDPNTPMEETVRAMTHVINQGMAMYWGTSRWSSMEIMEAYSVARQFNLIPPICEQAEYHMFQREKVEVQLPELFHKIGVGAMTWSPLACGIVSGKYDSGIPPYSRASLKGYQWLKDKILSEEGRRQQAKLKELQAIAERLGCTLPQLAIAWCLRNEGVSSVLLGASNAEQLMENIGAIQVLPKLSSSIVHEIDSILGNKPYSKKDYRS
- Measurement notes: inhibitors of rat Kvbeta2 reductase activity – biochemical, NADPH fluorescence, primary screen (AID 622);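 further: slope of raw intensity against log time taken from 70 to 1610 s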
- Experimental setup: recombinant KvBeta, 4-cyanobenzaldehyde reduction, at 10 µM, stronger effect = higher value
Readout type: fluorescence slope
Response field accepts a number only; no unit should be typed.

Illustrative cases are given below, each with its answer.
{"Molecule": "O=C(COc1ccccc1)NCCSCc1ccco1", "fluorescence slope": -0.271}
{"Molecule": "O=S(=O)(NCCc1ccccc1F)c1cccc(S(=O)(=O)N2CCOCC2)c1", "fluorescence slope": -0.584}
{"Molecule": "O=C(c1ccccc1)c1ccc(N2CCOCC2)c(NC(=O)c2ccco2)c1", "fluorescence slope": -0.421}

Per the records, this molecule ( COc1cccc2cc(C(=O)N3CCN(C45CC6CC(CC(C6)C4)C5)CC3)c(=O)oc12 ) has fluorescence slope equal to -0.443

// fluorescence slope value for COC(=O)Nc1ccc(S(=O)(=O)N(C)CC(F)(F)C(F)F)cc1 : -0.568

Form: molecule = COC(=O)c1cc(Br)c(=O)n(CCC2=CCCCC2)c1 ; fluorescence slope = -0.497

Value of fluorescence slope reported for the molecule CC(C)C12CN3CC(C(C)C)(CN(C1)C3c1ccc3c(c1)OCO3)C2=O (stereo unspecified) is -0.304

# fluorescence slope (molecule: O=C(Nc1ccc(N2CCCC2=O)cc1)c1cccc(F)c1 ) is -0.461

---

- Measurement notes: endothelial E-selectin expression blockers – imaging, HUVEC, immunofluorescence, MLSMR starter and 10KST1 sets, primary screen (AID 487);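 further: signal is fraction of cell area covered by stained E-selectin grains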
- Experimental setup: HUVEC TNFalpha-induced E-selectin immunofluorescence imaging, at 2 µM; stronger effect = higher value
Readout type: inhibition (%)
The figure you give is taken to be in %; do not add the unit.

// below: answered molecules
{"Line notation": "COCCN1CN(S(=O)(=O)c2ccccc2)c2nc3ccccc3nc21", "inhibition [%]": -47.3}
{"Line notation": "CCN1CCN(Cc2ccccc2NC(=O)Nc2ccc(C)cc2)CC1", "inhibition [%]": -23.4}
{"Line notation": "CCCCc1ccc(NC(=O)c2c(C)noc2C)cc1", "inhibition [%]": 47.3}
{"Line notation": "COc1ccc(-n2ncc3c(NCc4ccc5c(c4)OCO5)ncnc32)cc1", "inhibition [%]": -9.3}
{"Line notation": "CC(=O)c1nnn(-c2nc(N3CCCC3)nc(N(c3ccccc3)c3ccccc3)n2)c1C", "inhibition [%]": 51.9}

Continue with the molecule presented below.
Per the records, this molecule ( CC1(C)CC(=O)C(C=NCCc2ccc(S(N)(=O)=O)cc2)=C(O)C1 ) has inhibition equal to -11.3
